# EXPERIMENTAL SYSTEM: Muscarinic acetylcholine receptor
# MEASUREMENT NOTES: Inhibition of [3H]pirenzepine binding to muscarinic receptor in rat cortical homogenates
ASSAY METRIC: Ki (nM)

• CCCCOc1oc(C2=CCCN(C)C2)nc1C(C)CC (stereo not drawn) = 1.5
• COc1oc(C2=CCCN(C)C2)nc1C = 90
• CCCOc1oc(C2=CCCN(C)C2)nc1C(C)CC (stereo not drawn) = 0.8
• CCC(C)c1nc(C2=CCCN(C)C2)oc1OC (stereo not drawn) = 2
• CCCCc1nc(C2=CCCN(C)C2)oc1OC = 11
• COc1oc(C2=CCCN(C)C2)nc1Cc1ccccc1 = 16
• CCCCCCOc1oc(C2=CCCN(C)C2)nc1C(C)CC (stereo not drawn) = 22
• COc1oc(C2=CCCN(C)C2)nc1C(C)C = 10
• CCOc1oc(C2=CCCN(C)C2)nc1C = 33
• CCc1nc(C2=CCCN(C)C2)oc1OC = 30
• COc1oc(C2=CCCN(C)C2)nc1CC(C)C = 25
• CCOc1oc(C2=CCCN(C)C2)nc1C(C)CC (stereo not drawn) = 0.8
